- PROTOCOL: Metabolic stability in human liver microsomes assessed as compound remaining at 1 uM after 30 mins in presence of NADPH by HPLC-MS analysis
- Type: ADME
- CONDITION NOTES: read-out: Stability

| COMPOUND | READING UNIT | remaining at 0.5 h, 1 µM |
| --- | --- | --- |
| CC1=CC(=O)N(Nc2nc(-c3cccs3)nc3sc(-c4ccc(OCCNCc5ccccc5)cc4)c(C)c23)C1=O | % | 86.2 |
| CC1=CC(=O)N(Nc2nc(-c3cccs3)nc3sc(-c4ccc(OCCNCCC#N)cc4)c(C)c23)C1=O | % | 52 |
| CC1=CC(=O)N(Nc2nc(-c3cccs3)nc3sc(-c4ccc(OCCNCCO)cc4)c(C)c23)C1=O.Cl | % | 91.3 |
| CC1=CC(=O)N(Nc2nc(-c3cccs3)nc3sc(-c4ccc(O)cc4)cc23)C1=O | % | 74.1 |
| CC1=CC(=O)N(Nc2nc(-c3cccs3)nc3sc(-c4ccc(OC5CCNC5)cc4)c(C)c23)C1=O (stereo not drawn) | % | 50.8 |
| CC1=CC(=O)N(Nc2nc(-c3cccs3)nc3sc(-c4ccc(OCCN5CCCC5)cc4)c(C)c23)C1=O | % | 72.7 |
| CC1=CC(=O)N(Nc2nc(-c3cccs3)nc3sc(C#N)c(C)c23)C1=O | % | 52.7 |
| CC1=CC(=O)N(Nc2nc(-c3cccs3)nc3sc(-c4ccc(OC5CCNCC5)cc4)c(C)c23)C1=O | % | 52.4 |

====

- TEST SYSTEM: Receptor-type tyrosine-protein kinase FLT3 (Homo sapiens, UniProt P36888, D835Y)
MEASUREMENT TYPE: IC50

| SMILES INPUT | TEST SYSTEM | EXPERIMENTAL RESULT |
| --- | --- | --- |
| CC1=CC(=O)N(Nc2nc(-c3cccs3)nc3sc(-c4ccc(OCCNCCC#N)cc4)c(C)c23)C1=O | Receptor-type tyrosine-protein kinase FLT3 (Homo sapiens, UniProt P36888, D835Y) | 29.4 nM |
| CC1=CC(=O)N(Nc2nc(-c3cccs3)nc3sc(-c4ccc(F)cc4)cc23)C1=O | Receptor-type tyrosine-protein kinase FLT3 (Homo sapiens, UniProt P36888, D835Y) | 54.4 nM |
| CC1=CC(=O)N(Nc2nc(-c3cccs3)nc3sc(-c4ccc(OC5CCNCC5)cc4)c(C)c23)C1=O | Receptor-type tyrosine-protein kinase FLT3 (Homo sapiens, UniProt P36888, D835Y) | 27.2 nM |
| CC1=CC(=O)N(Nc2nc(-c3cccs3)nc3sc(-c4ccc(OCCNCC(C)C)cc4)c(C)c23)C1=O | Receptor-type tyrosine-protein kinase FLT3 (Homo sapiens, UniProt P36888, D835Y) | 35.9 nM |
| CC1=CC(=O)N(Nc2nc(-c3cccs3)nc3sc(-c4ccc(OCCNCc5ccccc5)cc4)c(C)c23)C1=O | Receptor-type tyrosine-protein kinase FLT3 (Homo sapiens, UniProt P36888, D835Y) | 9.48 nM |

====

- PROTOCOL: Oral bioavailability in Sprague-Dawley rat at 30 mg/kg up to 24 hrs by LC/MS/MS analysis
- Type: ADME, organism-based
- CONDITION NOTES: in vivo

| SMILES INPUT | READING UNIT | bioavailability |
| --- | --- | --- |
| CNCCOc1ccc(-c2sc3nc(-c4cccs4)nc(NN4C(=O)C=C(C)C4=O)c3c2C)cc1.Cl | % | 17 |

====

- PROTOCOL: AUC (0 to infinity) in Sprague-Dawley rat at 5 mg/kg, iv up to 24 hrs by LC/MS/MS analysis
- Format: ADME, organism-based
- Parameters: dose 5 mg/kg, route intravenous, time infinity
- CONDITION NOTES: in vivo
MEASUREMENT TYPE: AUC(0-inf) (ng·h/mL)

| SMILES INPUT | READING UNIT | EXPERIMENTAL RESULT |
| --- | --- | --- |
| CNCCOc1ccc(-c2sc3nc(-c4cccs4)nc(NN4C(=O)C=C(C)C4=O)c3c2C)cc1.Cl | ng·h/mL | 2120 |

====

- TEST SYSTEM: Tyrosine-protein kinase ABL1 (Homo sapiens, UniProt P00519)
- Sequence (P00519 whole entry): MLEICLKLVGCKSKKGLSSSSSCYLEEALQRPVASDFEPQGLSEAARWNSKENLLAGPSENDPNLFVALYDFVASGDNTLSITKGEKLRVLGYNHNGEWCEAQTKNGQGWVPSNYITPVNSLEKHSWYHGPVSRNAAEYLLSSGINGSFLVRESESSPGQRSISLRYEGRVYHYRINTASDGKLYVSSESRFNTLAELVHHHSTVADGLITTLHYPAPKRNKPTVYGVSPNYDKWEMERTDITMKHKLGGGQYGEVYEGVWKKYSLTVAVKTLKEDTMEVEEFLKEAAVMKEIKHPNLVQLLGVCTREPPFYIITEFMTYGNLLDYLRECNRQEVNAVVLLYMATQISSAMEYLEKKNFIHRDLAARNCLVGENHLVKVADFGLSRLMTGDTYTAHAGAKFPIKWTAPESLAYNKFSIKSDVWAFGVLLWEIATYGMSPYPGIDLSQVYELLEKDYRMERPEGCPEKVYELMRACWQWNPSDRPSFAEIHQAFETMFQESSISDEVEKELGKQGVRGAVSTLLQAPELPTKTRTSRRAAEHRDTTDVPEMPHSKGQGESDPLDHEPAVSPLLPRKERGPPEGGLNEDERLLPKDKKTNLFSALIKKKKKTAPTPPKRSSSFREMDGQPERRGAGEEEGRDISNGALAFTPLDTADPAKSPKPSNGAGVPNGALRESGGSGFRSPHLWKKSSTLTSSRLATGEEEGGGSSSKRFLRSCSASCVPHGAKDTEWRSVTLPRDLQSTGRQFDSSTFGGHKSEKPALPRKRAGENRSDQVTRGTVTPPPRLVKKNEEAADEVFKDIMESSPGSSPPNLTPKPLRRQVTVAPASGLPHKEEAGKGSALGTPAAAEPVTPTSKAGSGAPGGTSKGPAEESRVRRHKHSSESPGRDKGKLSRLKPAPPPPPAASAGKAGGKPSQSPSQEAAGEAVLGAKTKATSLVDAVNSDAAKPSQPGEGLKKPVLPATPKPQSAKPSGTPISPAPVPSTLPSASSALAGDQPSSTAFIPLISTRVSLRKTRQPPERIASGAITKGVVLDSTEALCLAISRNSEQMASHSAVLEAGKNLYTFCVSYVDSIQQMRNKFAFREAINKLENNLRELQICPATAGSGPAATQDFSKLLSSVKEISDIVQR
- PROTOCOL: Inhibition of recombinant human ABL1 expressed in insect cells preincubated for 15 mins followed by poly(Glu:Tyr) substrate addition for 30 mins in presence of [gamma-32P]ATP by […] assay

| SMILES INPUT | READING UNIT | IC50 |
| --- | --- | --- |
| CNCCOc1ccc(-c2sc3nc(-c4cccs4)nc(NN4C(=O)C=C(C)C4=O)c3c2C)cc1.Cl | nM | 2880 |

====

- PROTOCOL: Metabolic stability in rat liver microsomes assessed as compound remaining at 1 uM after 30 mins in presence of NADPH by HPLC-MS analysis
- Assay type: ADME
- CONDITION NOTES: liver microsomes, read-out: Stability
Below, each entry is listed alongside its reported remaining at 0.5 h, 1 µM.

| COMPOUND | READING UNIT | remaining at 0.5 h, 1 µM |
| --- | --- | --- |
| CC1=CC(=O)N(Nc2nc(-c3cccs3)nc3sc(C)cc23)C1=O | % | 32.6 |
| CC1=CC(=O)N(Nc2nc(-c3cccs3)nc3sc(-c4ccc(OCCNCc5ccccc5)cc4)c(C)c23)C1=O | % | 30.4 |
| CC1=CC(=O)N(Nc2nc(-c3cccs3)nc3sc(CO)c(C)c23)C1=O | % | 20.4 |
| CC1=CC(=O)N(Nc2nc(-c3cccs3)nc3sc(C)c(C)c23)C1=O | % | 22.7 |
| CC1=CC(=O)N(Nc2nc(-c3cccs3)nc3sc(-c4ccc(O)cc4)cc23)C1=O | % | 28.2 |
| CC1=CC(=O)N(Nc2nc(-c3cccs3)nc3sc(-c4ccc(OCCNCC(C)C)cc4)c(C)c23)C1=O | % | 39.7 |
| CC1=CC(=O)N(Nc2nc(-c3cccs3)nc3sc(-c4ccc(OCC5CCCO5)cc4)c(C)c23)C1=O (configuration not stated) | % | 41 |
| CC1=CC(=O)N(Nc2nc(-c3cccs3)nc3sc(-c4ccc(OCc5ccc(F)cc5)cc4)c(C)c23)C1=O | % | 35.6 |
| CC1=CC(=O)N(Nc2nc(-c3cccs3)nc3sc(-c4ccc(OC5CCNC5)cc4)c(C)c23)C1=O (configuration not stated) | % | 34.2 |
| CNCCOc1ccc(-c2sc3nc(-c4cccs4)nc(NN4C(=O)C=C(C)C4=O)c3c2C)cc1.Cl | % | 67.1 |
| CC1=CC(=O)N(Nc2nc(-c3cccs3)nc3sc(-c4ccc(OCCN5CCCC5)cc4)c(C)c23)C1=O | % | 41.5 |
| CC1=CC(=O)N(Nc2nc(-c3cccs3)nc3sc(C#N)c(C)c23)C1=O | % | 26.1 |
| CC1=CC(=O)N(Nc2nc(-c3cccs3)nc3sc(-c4ccc(F)cc4)cc23)C1=O | % | 26.9 |
| CC1=CC(=O)N(Nc2nc(-c3cccs3)nc3sc(-c4ccc(O)cc4)c(C)c23)C1=O | % | 28.8 |
| CC1=CC(=O)N(Nc2nc(-c3cccs3)nc3sc(-c4ccc(OC5CCNCC5)cc4)c(C)c23)C1=O | % | 47.8 |
| CC1=CC(=O)N(Nc2nc(-c3cccs3)nc3sc(-c4ccc(OCCNCCC#N)cc4)c(C)c23)C1=O | % | 32.1 |
| CC1=CC(=O)N(Nc2nc(-c3cccs3)nc3sc(-c4ccc(F)cc4)c(C)c23)C1=O | % | 54.5 |

====

- PROTOCOL: Volume of distribution at steady state in Sprague-Dawley rat at 5 mg/kg, iv up to 24 hrs by LC/MS/MS analysis
- Assay type: ADME, organism-based
- CONDITION NOTES: in vivo, read-out: Vdss
MEASUREMENT TYPE: Vd (L/kg)

| SMILES INPUT | READING UNIT | EXPERIMENTAL RESULT |
| --- | --- | --- |
| CNCCOc1ccc(-c2sc3nc(-c4cccs4)nc(NN4C(=O)C=C(C)C4=O)c3c2C)cc1.Cl | L/kg | 8.22 |

====

- PROTOCOL: Elimination half life in Sprague-Dawley rat at 30 mg/kg, po by LC/MS/MS analysis
- Assay type: ADME, organism-based
- CONDITION NOTES: in vivo, read-out: beta t1/2 (converted)

| SMILES INPUT | half-life |
| --- | --- |
| CNCCOc1ccc(-c2sc3nc(-c4cccs4)nc(NN4C(=O)C=C(C)C4=O)c3c2C)cc1.Cl | 15.2 h |
